biological target: μ opioid receptor (Homo sapiens, UniProt P35372); assay: μ opioid competitive radioligand binding
Sequence (P35372 whole entry, species assumed): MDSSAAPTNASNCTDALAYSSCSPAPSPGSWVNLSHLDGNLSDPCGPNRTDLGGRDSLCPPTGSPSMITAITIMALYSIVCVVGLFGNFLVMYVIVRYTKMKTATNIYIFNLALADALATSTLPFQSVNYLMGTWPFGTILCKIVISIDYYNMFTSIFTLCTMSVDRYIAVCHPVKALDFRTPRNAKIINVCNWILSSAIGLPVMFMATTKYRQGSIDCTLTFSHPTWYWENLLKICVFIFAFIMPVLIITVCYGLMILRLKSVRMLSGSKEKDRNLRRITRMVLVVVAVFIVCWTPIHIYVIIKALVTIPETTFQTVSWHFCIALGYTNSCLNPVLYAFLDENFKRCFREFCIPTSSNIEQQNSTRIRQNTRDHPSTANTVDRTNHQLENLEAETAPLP
pKi: −log10 of the molar value.

{"columns": ["compound", "pKi"],
 "data": [
  ["COc1ccc(C[C@@H]2c3cc(Oc4cc(C[C@@H]5c6cc(OC)c(OC)cc6CCN5C)ccc4O)c(OC)cc3CCN2C)cc1", 5.74],
  ["COc1cc2c(cc1O)C(Cc1ccc(O)cc1)NCC2 (centres unmarked)", 5.30]
]}

Data origin: paper PMC4636954
